Just for reference, PubChem BioAssay (NCATS) is where these values come from.

- measurementProtocol: Quantitative High-Throughput drug screen in 47 multiple myeloma cell lines against the NCATS MIPE library collection: Karpas620_DSMZ cell viability assay (AID 1918959); also: nearly all actives have a fitted effect of over 30% in size; also: potency is read from the fitted curve at half-maximal effect
- conditionSet: Karpas620 myeloma viability, CellTiter-Glo ATP luminescence, 48 h; series mostly up to 45.8 µM
Results filed as inconclusive are left out. Active and inactive are the calls of the source. Calls follow the shape of the dose curve; as a rule, active = well fitted cell-killing curve with a large enough effect; inconclusive = small, poorly fitted or top-dose-only effect, or effect the other way; inactive = no such curve, though single readings can be large or run the other way.
reportedEndpoint: Potency

Some solved cases for reference:
{"columns": ["molecule", "Potency"],
 "data": [
  ["O[C@@H](CNC[C@H](O)[C@H]1CCc2cc(F)ccc2O1)[C@@H]1CCc2cc(F)ccc2O1", "20.9 µM (active)"],
  ["C[C@]12C=CC(=O)C=C1CC[C@@H]1[C@@H]2C(=O)C[C@@]2(C)[C@H]1CC[C@]2(O)C(=O)CO", "inactive"],
  ["COC(=O)Nc1nc2ccc(S(=O)c3ccccc3)cc2[nH]1 (centres undefined)", "inactive"],
  ["COc1cc2nc(N3CCCN(C)CC3)nc(NC3CCN(Cc4ccccc4)CC3)c2cc1OC", "3.72 µM (active)"],
  ["CCOC(=O)[C@H](CCc1ccccc1)N[C@H]1CCc2ccccc2N(CC(=O)O)C1=O", "14.8 µM (active)"]
]}

Record Potency per entry; entries follow.
1. CCCOc1ccc(C(=O)OCCN(CC)CC)cc1N
2. CCCc1nc(C)c2c(=O)[nH]c(-c3cc(S(=O)(=O)N4CCN(CC)CC4)ccc3OCC)nn12
3. CN(CCOc1ccc(CC2SC(=O)NC2=O)cc1)c1ccccn1 (centres undefined)
4. COc1ccc(C(=O)CC(=O)c2ccc(C(C)(C)C)cc2)cc1
5. CCOc1cc(N)c(Cl)cc1C(=O)NCC1CN(Cc2ccc(F)cc2)CCO1 (centres undefined)
6. CC(C)C1CCC(C(=O)N[C@H](Cc2ccccc2)C(=O)O)CC1 (some centres undefined)
7. COc1cc([C@@H]2c3cc4c(cc3[C@H](O)[C@H]3COC(=O)[C@H]23)OCO4)cc(OC)c1OC
8. CC[C@H](NC(C)C)[C@H](O)c1ccc(O)c2[nH]c(=O)ccc12

A)
1. inactive
2. 2.35 µM (active)
3. 0.0019 µM (active)
4. 4.18 µM (active)
5. inactive
6. inactive
7. inactive
8. inactive

Q) Value lookup for Potency; key = "Nc1ccc(S(=O)(=O)Nc2ccccn2)cc1"
A) inactive
